test system: NKM-1 (Acute Myeloid Leukemia); experiment: combination Emax (second highest fraction inhibited in the dose matrix, 72 h); higher = more inhibition; extreme values may be limits of the assay
parameter: combination Emax

Sample answers from the record:
molecule="Cc1cc2ncnn2cc1Nc1ncc2c(n1)n(C1CCOCC1)c(=O)n2C [AZD7648] + COc1cc([C@@H]2c3cc4c(cc3[C@@H](O[C@@H]3O[C@@H]5CO[C@@H](C)O[C@H]5[C@H](O)[C@H]3O)[C@H]3COC(=O)[C@H]23)OCO4)cc(OC)c1O [Etoposide] (first compound max 10 µM, 7x7, partner max 10 µM)" parameter="combination Emax" endpoint_value=0.976
molecule="CC1(C)CCC(CN2CCN(c3ccc(C(=O)NS(=O)(=O)c4ccc(NCC5CCOCC5)c([N+](=O)[O-])c4)c(Oc4cnc5[nH]ccc5c4)c3)CC2)=C(c2ccc(Cl)cc2)C1 [Venetoclax] + Cc1cc2ncnn2cc1Nc1ncc2c(n1)n(C1CCOCC1)c(=O)n2C [AZD7648] (first compound max 1 µM, 7x7, partner max 10 µM)" parameter="combination Emax" endpoint_value=0.959

# evaluate next
// sample Cc1c2c(nn1C)CSCc1cc(n(C)n1)CSc1cc(c3ccccc3c1)OCCCc1c(C(=O)O)n(C)c3c-2c(Cl)ccc13 [AZD5991] + CC1(C)CCC(CN2CCN(c3ccc(C(=O)NS(=O)(=O)c4ccc(NCC5CCOCC5)c([N+](=O)[O-])c4)c(Oc4cnc5[nH]ccc5c4)c3)CC2)=C(c2ccc(Cl)cc2)C1 [Venetoclax] (first compound max 1 µM, 7x7, partner max 1 µM) , its combination Emax was 0.999

---

test system: HSC-3 (Oral Cavity Carcinoma); experiment: Bliss excess, mean over the matrix (fraction); higher = more synergy;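 note: after 72 h of two-drug dosing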
Where Bliss excess equals or exceeds -0.008, the correct label is YES; where it does not, the label is NO.

Examples from the recorded data:
molecule="Cn1cnc2c(F)c(Nc3ccc(Br)cc3Cl)c(C(=O)NOCCO)cc21 [Selumetinib] + CCN(CCO)CCCOc1ccc2c(Nc3cc(CC(=O)Nc4cccc(F)c4)[nH]n3)ncnc2c1 [AZD2811] (first compound max 10 µM, 7x7, partner max 1 µM)" discrete_label=NO
molecule="CN(CCO)CC[C@H](CSc1ccccc1)Nc1ccc(S(=O)(=O)NC(=O)c2ccc(N3CCC([C@@H](O)c4ccccc4-c4ccc(Cl)cc4)CC3)cc2)cc1S(=O)(=O)C(F)(F)F [AZD4320] + C=CCn1c(=O)c2cnc(Nc3ccc(N4CCN(C)CC4)cc3)nc2n1-c1cccc(C(C)(C)O)n1 [AZD1775] (first compound max 1 µM, partner max 1 µM)" discrete_label=NO
molecule="CC1(C)CCC(CN2CCN(c3ccc(C(=O)NS(=O)(=O)c4ccc(NCC5CCOCC5)c([N+](=O)[O-])c4)c(Oc4cnc5[nH]ccc5c4)c3)CC2)=C(c2ccc(Cl)cc2)C1 [Venetoclax] + CN(C)CCCOc1ccc(-c2ccc3ncc4c(c3c2)n(C2CCOCC2)c(=O)n4C)cn1 [AZD0156] (first compound max 1 µM, 7x7, partner max 1 µM)" discrete_label=YES

Given the entry CN(CCO)CC[C@H](CSc1ccccc1)Nc1ccc(S(=O)(=O)NC(=O)c2ccc(N3CCC([C@@H](O)c4ccccc4-c4ccc(Cl)cc4)CC3)cc2)cc1S(=O)(=O)C(F)(F)F [AZD4320] + C1CN(CCC1(C(=O)N[C@@H](CCO)C2=CC=C(C=C2)Cl)N)C3=NC=NC4=C3C=CN4 [Capivasertib] (first compound max 1 µM, 7x7, partner max 3 µM) , answer whether its Bliss excess meets or surpasses -0.008.
NO

Given the entry Cc1cc2ncnn2cc1Nc1ncc2c(n1)n(C1CCOCC1)c(=O)n2C [AZD7648] + O=C(c1cc(Cc2n[nH]c(=O)c3ccccc23)ccc1F)N1CCN(C(=O)C2CC2)CC1 [Olaparib] (first compound max 10 µM, 7x7, partner max 10 µM) , answer whether its Bliss excess meets or surpasses -0.008.
NO

Given the entry Cc1c2c(nn1C)CSCc1cc(n(C)n1)CSc1cc(c3ccccc3c1)OCCCc1c(C(=O)O)n(C)c3c-2c(Cl)ccc13 [AZD5991] + CN(C)CCCOc1ccc(-c2ccc3ncc4c(c3c2)n(C2CCOCC2)c(=O)n4C)cn1 [AZD0156] (first compound max 1 µM, 7x7, partner max 1 µM) , answer whether its Bliss excess meets or surpasses -0.008.
YES

Given the entry CS(=O)(=O)CCNCc1ccc(-c2ccc3ncnc(Nc4ccc(OCc5cccc(F)c5)c(Cl)c4)c3c2)o1 [Lapatinib] + C[C@@H](Oc1cc(-c2cnn(C3CCNCC3)c2)cnc1N)c1c(Cl)ccc(F)c1Cl [Crizotinib] (first compound max 10 µM, 7x7, partner max 10 µM) , answer whether its Bliss excess meets or surpasses -0.008.
NO
